tested on: NCI-H322M lung; assay: NCI-60 one-dose screen, 48 h; details: 10 µM unless noted
About 83,000 compounds went through this panel and 20% of them were active in at least one assay; those are over-represented in the sample as a whole. Calls of active or inactive are those of the source. Rule for the calls: active = growth percent below 10; inactive = the rest.
Return exactly one item of 1.0 for active, 0.0 for inactive

molecule	label_value
NS(=O)(=O)c1ccc(Nc2nc3n[nH]c(Nc4ccccc4)c3c(=O)[nH]2)cc1	0.0
COc1cc(C2C(C(=O)c3cccs3)=C(O)C(=O)N2CCN2CCOCC2)cc(OC)c1OC (centres undefined)	0.0
CCC(C)[C@@H]1NC(=O)[C@@H]2CCCN2C(=O)[C@H](Cc2ccccc2)NC(=O)[C@@H]2CCCN2C(=O)[C@H](Cc2ccccc2)NC(=O)[C@@H]2CCCN2C(=O)[C@H](Cc2ccccc2)NC1=O (some centres undefined)	0.0
CCOC(=O)/C=C/C(=O)[C@H](CC(C)C)NC(=O)[C@H](Cc1ccccc1)NC(=O)OCc1ccccc1	0.0
COc1ccc2nc(NC(=O)c3cccnc3Nc3cc(OC)c(OC)c(OC)c3)sc2c1	1.0

What outcome does the record of this test show for Nc1c(C(=O)Nc2cccc3c2OCCO3)sc2nc3c(cc12)C(=O)CCC3 ?
0.0

====

What growth was measured for each of the following?
system: MDA-MB-231 breast; experiment: NCI-60 one-dose screen, 48 h (100 = growth as untreated, 0 = no growth, -100 = all killed); settings: 10 µM unless noted
This is part of a sample that, as a whole, favours compounds with a hit. Of some 83,000 tested, about 20% had one in any assay.
One number for each entry, in %.

compound	observation_type	measurement
Cc1ccc(S(=O)(=O)N(CCc2ccc(Cl)cc2)S(=O)(=O)c2ccc(C)cc2)cc1	growth	108
CC(C)[C@@H]1CC[C@]2(C(=O)NCCCCN=C(N)N)CC[C@]3(C)[C@H](CC[C@@H]4[C@@]5(C)CCC(=O)C(C)(C)[C@@H]5CC[C@]43C)[C@@H]12	growth	74.3
O=C1c2cccnc2C(=O)c2c1c(C(=O)OCCN1CCCCC1)c1ccccn21	growth	-27.9
CC(C)(C)c1nn(-c2ccccc2)c2c1CC1(CN2Cc2ccc3c(c2)OCO3)C(=O)c2ccccc2C1=O	growth	94.6
CCOC(=O)C(CC)n1c(=O)c2cc(OC)c(OC)cc2c2cnc3[nH]ccc3c21 (stereo not given)	growth	70.5

For each of the items listed, what is its growth?
1. O=C(CCCN1CCOCC1)Nc1ccc(Cn2nnc3c2C(=O)c2nnn(Cc4ccc(NC(=O)CCCN5CCOCC5)cc4)c2C3=O)cc1
2. COc1ccc(-c2nc(Nc3cc(C)[nH]n3)c3ccccc3n2)cc1
3. Oc1ccccc1N=Cc1c(O)ccc2ccccc12

5.78
65.3
57

Can you give me growth for all of these, one by one?
1. COc1ccc(/C=N\NC(=O)CN2CCN(c3cc4c(cc3F)c(=O)c(C(=O)N/N=C/c3ccc(OC)cc3)cn4C3CC3)CC2)cc1
2. C=C1CCC2C3(C)COC(c4cccc(Cl)c4)OC3CCC2(C)C1/C=C/C1=CCOC1=O (stereo not given)
3. Cc1cc(Nc2nc(N3CCN(C)CC3)nc3ccccc23)n[nH]1
4. Nc1nc2ccc(-c3nc4ccc5[nH]ncc5c4c4c3CCC4)cc2s1
5. O=C(Nc1ccc(CN2CCOCC2)cc1)c1[nH]ncc1Nc1ncnc2sccc12
6. Cc1cc(N/N=C/c2nc(-c3ccc(Cl)cc3)oc2C)c2cc(Cl)ccc2n1
7. NC1=CC(=O)C(=O)c2ccccc21

85.7
80.1
83.2
42.2
15.8
63.8
77.5

====

tested on: HCT-15 colon; test: NCI-60 one-dose screen, 48 h (100 = growth as untreated, 0 = no growth, -100 = all killed); settings: 10 µM unless noted
About 83,000 compounds went through this panel and 20% of them were active in at least one assay; those are over-represented in the sample as a whole. Active and inactive are the calls of the source. Rule for the calls: active = growth percent below 10; inactive = the rest.
Provide the reported growth of each item.

Solved entries:
compound	growth
O=C1/C(=C\c2cn(C(=O)c3ccc(Cl)cc3)c3ccccc23)c2ccccc2N1c1c(Cl)cccc1Cl	66.3% (inactive)
Brc1cccc(-c2cc(-c3ccc4c(c3)OCCO4)[nH]n2)c1	15.9% [25 µM] (inactive)
O=C(/C=C\c1ccc2ccccc2n1)c1cc(Cl)ccc1O	73.6% (inactive)
Oc1ccccc1/C=N/Nc1ccc2ccccc2n1	25.2% (inactive)
NC(=S)N/N=C/c1cc(-c2cccc(N)c2)ccn1	23.8% (inactive)
C=C1CC[C@@H]2[C@](C)(COC(C)=O)[C@H](OC(C)=O)CC[C@@]2(C)[C@@H]1CC(NCc1ccc(F)cc1)C1=CCOC1=O (stereo not given in full)	37% (inactive)
CCN(CC)CC(O)CNc1c2ccc([N+](=O)[O-])cc2nc2cc(OC)c(OC)cc12 (stereo not given)	11.9% (inactive)
COc1ccc(C(=O)c2sc3nc(-c4ccccc4OC)ccc3c2N)cc1OC	58.5% (inactive)

Dear colleague, could you send me growth for each of the items below? Thanks.
1. COc1ccccc1/C=C(/C(=O)c1ccccc1)c1ccccc1
2. CCCCCCCCCCNC(=O)CCl

1: 93.4% (inactive); 2: 72.4% (inactive)

====

system: TK-10 renal; experiment: NCI-60 one-dose screen, 48 h (100 = growth as untreated, 0 = no growth, -100 = all killed); settings: 10 µM unless noted
About 83,000 compounds went through this panel and 20% of them were active in at least one assay; those are over-represented in the sample as a whole.
observation_type: growth (%)
One number for each entry, in %.

// input: 4 compounds below; output: growth for each
1. NCc1cn2cc(Cl)sc2n1
2. CNC(=O)c1cc(Oc2ccc3nc(NC(=O)Nc4ccc(N5CCC(N(C)C)CC5)cc4)sc3c2)ccn1
3. CC[C@H](Nc1ncnc(N)c1C(N)=O)c1nc2cccc(NCc3ccc(C(=O)NO)cc3)c2c(=O)n1-c1ccccc1
4. COc1ccc(-c2cc(-c3cccnc3)nc3sc4c(=O)n(-c5ccc(C)cc5)nnc4c23)cc1OC

92.1
115
69.9
115

====

test system: OVCAR-5 ovarian; assay: NCI-60 one-dose screen, 48 h (100 = growth as untreated, 0 = no growth, -100 = all killed); conditions: 10 µM unless noted
This is part of a sample that, as a whole, favours compounds with a hit. Of some 83,000 tested, about 20% had one in any assay.
observation_type: growth (%)
Numbers only, in %.

// batch mode: one growth value per listed entry
1. NC(N)=Nc1ccc(S(=O)(=O)O)cc1
2. C[C@]12C[C@@H](c3ccoc3)OC(=O)[C@@H]1CC[C@]1(C)[C@@H]2CC[C@@H](O)[C@]1(C)O
3. C=C1CC[C@@H]2[C@](C)(COC(C)=O)[C@H](OC(C)=O)CC[C@@]2(C)[C@@H]1CC(Nc1ccc(S(=O)(=O)Nc2nc(C)cc(C)n2)cc1)C1=CCOC1=O (some centres undefined)

99.7
137
103

====

For each of the compounds below, state its growth.
system: SF-268 CNS; assay: NCI-60 one-dose screen, 48 h (100 = growth as untreated, 0 = no growth, -100 = all killed); conditions: 10 µM unless noted
The panel holds about 83,000 compounds, 20% with a hit somewhere; the sample as a whole holds those more often.
Give bare numbers, in %.

Please review the following examples before continuing.
compound	unit_descriptor	growth
COc1ccc(-c2cn3c(-c4ccc(OC)cc4)cnc3c(Oc3ccc4c(C)cc(=O)oc4c3)n2)cc1	%	65.7
CCOC(=O)c1nc(Nc2cc(C)[nH]n2)c2ccccc2n1	%	101
COc1ccc(/C=C2\N=C3SC=C(N)N3C2=O)cc1	%	37.3

Please give growth, item by item, for the list that follows.
1. O=C1Nc2ccccc2/C1=C/C(=N/c1nnc(-c2ccccc2)s1)c1ccccc1
2. COc1ccc(-n2c(C)nc3c(c(C)nn3-c3ccccc3)c2=O)cc1
3. CCC(=O)OCc1cccc(OC)c1
4. COc1cc(C#N)cc(OC)c1OCCN(CCOc1c(OC)cc(C#N)cc1OC)S(=O)(=O)c1ccc(C)cc1
5. CCc1ccc(C(c2ccc(CC)cc2)C(Cl)(Cl)CCl)cc1

1. 60.4
2. 30.3
3. 107
4. 107
5. 93.7

Fill in growth for each of the 2 compounds listed.
1. COc1ccccc1N1CCN(CCn2c(=O)c3c(c4ccccc4n3C)n(C)c2=O)CC1
2. COc1c(C2CC(=O)Nc3c2cnn3Cc2ccco2)cc2c(c1OC)OCO2 (stereo not given)

96.2
34.1

====

tested on: SK-MEL-28 melanoma; assay: NCI-60 one-dose screen, 48 h (100 = growth as untreated, 0 = no growth, -100 = all killed); conditions: 10 µM unless noted
The panel holds about 83,000 compounds, 20% with a hit somewhere; the sample as a whole holds those more often.
// NB: equality with 60% counts as Not fulfilled; only growth strictly below is Fulfilled

Use these answered entries as a reference point.
compound	label_value
COc1ccc(/C=C/C(=O)c2ccc(NC(=O)c3cc4cc5ccccc5nc4s3)cc2)cc1OC	Not fulfilled
O=[N+]([O-])c1cccc(C2CC(c3ccccc3)=Nc3ccccc3S2)c1 (stereo unspecified)	Not fulfilled
CN1C2CCC1/C(=C\c1ccc(Cl)cc1)C1=C2[C@@H](c2ccc(Cl)cc2)C(C#N)=C(N)O1 (stereo partly specified)	Not fulfilled

# strict comparison: is reported growth < 60%? input = CC(=O)Oc1ccc(Nc2c3ccccc3nc3ccccc23)cc1
Fulfilled

State whether 60% exceeds growth recorded for C(=N\Nc1nnn(Cc2ccccc2)n1)/c1ccccc1 .
Fulfilled

Dear reviewer, please state whether NC(CC(=O)O)C(=O)OCc1ccccc1 (stereo unspecified) has growth strictly beneath 60%.
Not fulfilled

Is the reported growth for CCN(CC)CCCNc1cccc2c(SCc3ccccc3)ccnc12 strictly below 60%?
Not fulfilled

Would you kindly verify if growth of COc1ccc2nc(NC(=O)c3cccnc3Nc3cc(OC)c(OC)c(OC)c3)sc2c1 is strictly less than 60%?
Fulfilled

I'd appreciate it if you could check whether COc1c2ccccc2c(OC)c2[nH]c(=O)ccc12 has growth smaller than 60%.
Fulfilled

Data origin, for the record: PubChem BioAssay (NCI)
